method: qHTS assay to identify small molecule agonists of the sonic hedgehog signaling (Shh) pathway - cell viability counter screen (AID 1259366); also: % is scaled to controls: 0 for no effect and ±100 for the full control effect; nearly all actives have a fitted effect of over 50% in size
condition-info: NIH/3T3 Gli1-Luc viability, CellTiter-Fluor, 24 h; series mostly up to 92.4 µM
Records with an inconclusive call do not appear. Active and inactive are the calls of the source. Calls follow the shape of the dose curve; as a rule, active = well fitted cell-killing curve with a large enough effect in the repeat runs; inconclusive = weak or mixed curves, or effect the other way; inactive = flat fitted curve, though single readings scatter.

>  <molecule>
CCCCCCCCCCCCCOC(=O)CCSCCC(=O)OCCCCCCCCCCCCC

>  <viability change, negative = cytotoxic>
2.43% [at 19 µM] (inactive)

$$$$
>  <molecule>
CC1=CC[C@@H]2C[C@H]1C2(C)C

>  <viability change, negative = cytotoxic>
-0.75% [at 19 µM] (inactive)

$$$$
>  <molecule>
CCC(Cl)CC(Cl)C(Cl)C(Cl)C(Cl)C(C)Cl (centres undefined)

>  <viability change, negative = cytotoxic>
-0.751% [at 19 µM] (inactive)

$$$$
>  <molecule>
CCCCCCCCCCCCCCN(C)C

>  <viability change, negative = cytotoxic>
-0.743% [at 19 µM] (inactive)

$$$$
